Sourced from paper PMC10663500

# target: T1, human programmed cell death protein 1 (hPD-1) C93S (aa 24-167) (Homo sapiens, UniProt Q15116, C93S)
# T1 construct: made as a fusion with a TEV site and human Fc; the Fc was cut off with TEV protease; source: Expi293F, purified (Protein A, TEV cleavage of Fc, SEC; monomer fractions); not shown: Fc (human), C-terminal, cleaved
# T1 sequence (Q15116 24-167 C93S): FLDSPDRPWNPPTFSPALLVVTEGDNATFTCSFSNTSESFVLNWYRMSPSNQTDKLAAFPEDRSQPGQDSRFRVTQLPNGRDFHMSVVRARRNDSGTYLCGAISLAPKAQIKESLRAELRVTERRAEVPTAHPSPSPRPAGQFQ
# run-description: SPR; Carterra LSA; Fab from the ammonium sulfate precipitate of the culture supernatant immobilised on a NiHC200M chip; hPD-1 (1-1024 nM) or mPD-1-Fc (4-1024 nM) as analyte, fourfold dilution series, no regeneration; HBS-EP pH 7.4, 25 °C; medians over the spots of a construct, KD = koff/kon
# settings: one partner purified
pKd: −log10 of the molar value.

binder: toripalimab Fab L.V99H (Fab, V domains shown, as the heavy chain of Sm3; light chain of Sm3 with this change; numbers count from the chain's first residue; source: Brevibacillus, culture supernatant (ammonium sulfate precipitate); not shown: 6xHis, C-terminal, kept; 6xHN, C-terminal, kept) VH: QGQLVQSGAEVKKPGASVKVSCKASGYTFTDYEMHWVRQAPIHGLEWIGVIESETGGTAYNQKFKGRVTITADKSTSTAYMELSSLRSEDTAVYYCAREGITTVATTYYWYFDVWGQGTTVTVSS VL: DVVMTQSPLSLPVTLGQPASISCRSSQSIVHSNGNTYLEWYLQKPGQSPQLLIYKVSNRFSGVPDRFSGSGSGTDFTLKISRVEAEDVGVYYCFQGSHHPLTFGQGTKLEIK
pKd: 7.64

binder: toripalimab Fab H.F112Y (Fab, V domains shown, heavy chain of Sm3 with this change; numbers count from the chain's first residue; as the light chain of Sm3; source: Brevibacillus, culture supernatant (ammonium sulfate precipitate); not shown: 6xHis, C-terminal, kept; 6xHN, C-terminal, kept) VH: QGQLVQSGAEVKKPGASVKVSCKASGYTFTDYEMHWVRQAPIHGLEWIGVIESETGGTAYNQKFKGRVTITADKSTSTAYMELSSLRSEDTAVYYCAREGITTVATTYYWYYDVWGQGTTVTVSS VL: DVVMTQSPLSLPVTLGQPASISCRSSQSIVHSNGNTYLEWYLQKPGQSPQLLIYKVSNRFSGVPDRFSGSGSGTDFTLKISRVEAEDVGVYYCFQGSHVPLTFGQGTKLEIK
pKd: > 9.14

binder: toripalimab Fab L.S57Y (Fab, V domains shown, as the heavy chain of Sm3; light chain of Sm3 with this change; numbers count from the chain's first residue; source: Brevibacillus, culture supernatant (ammonium sulfate precipitate); not shown: 6xHis, C-terminal, kept; 6xHN, C-terminal, kept) VH: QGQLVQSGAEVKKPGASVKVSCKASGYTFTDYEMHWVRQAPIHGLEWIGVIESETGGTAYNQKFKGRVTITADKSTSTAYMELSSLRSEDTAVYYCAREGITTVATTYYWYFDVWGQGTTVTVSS VL: DVVMTQSPLSLPVTLGQPASISCRSSQSIVHSNGNTYLEWYLQKPGQSPQLLIYKVYNRFSGVPDRFSGSGSGTDFTLKISRVEAEDVGVYYCFQGSHVPLTFGQGTKLEIK
pKd: > 9.47

binder: toripalimab Fab L.P100E (Fab, V domains shown, as the heavy chain of Sm3; light chain of Sm3 with this change; numbers count from the chain's first residue; source: Brevibacillus, culture supernatant (ammonium sulfate precipitate); not shown: 6xHis, C-terminal, kept; 6xHN, C-terminal, kept) VH: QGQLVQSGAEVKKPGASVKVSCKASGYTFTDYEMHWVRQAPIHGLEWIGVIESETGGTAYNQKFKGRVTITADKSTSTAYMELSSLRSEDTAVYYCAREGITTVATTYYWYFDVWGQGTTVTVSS VL: DVVMTQSPLSLPVTLGQPASISCRSSQSIVHSNGNTYLEWYLQKPGQSPQLLIYKVSNRFSGVPDRFSGSGSGTDFTLKISRVEAEDVGVYYCFQGSHVELTFGQGTKLEIK
pKd: > 9.26

binder: toripalimab Fab H.G66A (Fab, V domains shown, heavy chain of Sm3 with this change; numbers count from the chain's first residue; as the light chain of Sm3; source: Brevibacillus, culture supernatant (ammonium sulfate precipitate); not shown: 6xHis, C-terminal, kept; 6xHN, C-terminal, kept) VH: QGQLVQSGAEVKKPGASVKVSCKASGYTFTDYEMHWVRQAPIHGLEWIGVIESETGGTAYNQKFKARVTITADKSTSTAYMELSSLRSEDTAVYYCAREGITTVATTYYWYFDVWGQGTTVTVSS VL: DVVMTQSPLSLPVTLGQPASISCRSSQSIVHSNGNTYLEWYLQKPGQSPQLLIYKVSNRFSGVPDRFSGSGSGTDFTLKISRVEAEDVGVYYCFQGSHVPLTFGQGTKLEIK
pKd: > 8.81
